I'd be grateful if you could share measured absorption maximum for these entries.
# experiment: solvent given as SMILES
# condition.context: in C1CCOC1
Answers are plain numbers, in nm.

smiles_structure=COc1cc(-c2nc(-c3ccccc3)c(-c3ccccc3)[nH]2)c(OC)cc1/C=C/c1ccncc1 unit_text=nm recorded_result=394
smiles_structure=CCCCCCC1(CCCCCC)c2cc(-c3nc(-c4ccc5c(c4)C(CCCCCC)(CCCCCC)c4cc(N6c7ccccc7Oc7ccccc76)ccc4-5)nc(-c4ccc5c(c4)C(CCCCCC)(CCCCCC)c4cc(N6c7ccccc7Oc7ccccc76)ccc4-5)n3)ccc2-c2ccc(N3c4ccccc4Oc4ccccc43)cc21 unit_text=nm recorded_result=391

The record that follows has no absorption maximum shown yet.
Problem: # get_value(readout='absorption maximum', item= `CCOc1cc(C=C2c3ccccc3-c3ccccc32)c(OCC)cc1C=C1c2ccccc2C=Cc2ccccc21` )
Solution: 395

* * *

I'd be grateful if you could share measured absorption maximum for these entries.
# experiment: solvent given as SMILES
# condition.context: in CC(C)=O
Answer with the figure and its unit, nothing else.

Use the examples below as a reference point.
smiles_structure=O=C1c2ccccc2-c2ccc(Nc3nc(Cl)nc(Cl)n3)c3cccc1c23 readout="absorption maximum" recorded_result="405.02 nm"
smiles_structure=CC1=[N+]2C(=C(c3ccc(N4CCOCC4)cc3)c3ccc(C)n3[B-]2(F)F)C=C1 readout="absorption maximum" recorded_result="505 nm"

The record that follows has no absorption maximum shown yet.
Problem: # get_value(readout='absorption maximum', item= `CN(C)c1ccc(/C=C/C(=C(C#N)C#N)c2ccc3c4c(cccc24)CC3)cc1` )
Solution: 492 nm

* * *

I'd be grateful if you could share measured absorption maximum for these entries.
# experiment: solvent given as SMILES
# condition.context: in CC#N
Give bare numbers, in nm.

smiles_structure=N#C/C(=C\c1ccncc1)c1nc(-c2ccccc2)cs1 readout="absorption maximum" unit_text=nm recorded_result=361
smiles_structure=O=C1c2ccccc2C(=O)N1c1ccc(Cn2cncn2)cc1 readout="absorption maximum" unit_text=nm recorded_result=315
smiles_structure=O=C1c2ccccc2-c2cnccc21 readout="absorption maximum" unit_text=nm recorded_result=397.05
smiles_structure=Cc1cc(C)c(C2=C3C=C(c4ccc(C(C)(C)C)cc4)C(c4ccc(C(C)(C)C)cc4)=[N+]3[B-](F)(F)n3c2cc(-c2ccc(C(C)(C)C)cc2)c3-c2ccc(C(C)(C)C)cc2)c(C)c1 readout="absorption maximum" unit_text=nm recorded_result=592
smiles_structure=CN(C)c1ccc(C2=Nc3sc4ccccc4[n+]3[B-](F)(F)O2)cc1 readout="absorption maximum" unit_text=nm recorded_result=421
smiles_structure=CCC1(CC)c2cc(/C=C/c3cc(Br)c(/C=C/c4ccc5c(c4)C(CC)(CC)c4cc(N6c7ccccc7Sc7ccccc76)ccc4-5)cc3Br)ccc2-c2ccc(N3c4ccccc4Sc4ccccc43)cc21 readout="absorption maximum" unit_text=nm recorded_result=435.81
smiles_structure=F[B-]1(F)OC(c2ccccc2)=CC(c2ccccc2)=[O+]1 readout="absorption maximum" unit_text=nm recorded_result=376
smiles_structure=CC1(C)CCc2c(c3ccccc3c3nc4c(nc23)c2c(c3ccccc34)OC(C)(C)CC2)O1 readout="absorption maximum" unit_text=nm recorded_result=434.97
smiles_structure=COC(=O)c1cc(=O)n(C)c2cc(-c3cccc(OC)c3)sc12 readout="absorption maximum" unit_text=nm recorded_result=394

Problem: # get_value(readout='absorption maximum', item= `CCCCN(CCCC)c1ccc(/C=C/c2ccc3nc(/C=C/c4ccc(N(C)C)cc4)c(=O)n(CCC)c3c2)cc1` )
Solution: 488

* * *

# experiment: solvent given as SMILES
# condition.context: in Cc1ccccc1
readout: absorption maximum
Answer with the figure and its unit, nothing else.

Use the examples below as a reference point.
molecule=F[B-]1(F)Oc2ccccc2-c2cc(-n3c4ccccc4c4ccccc43)cc[n+]21 readout="absorption maximum" recorded_result="366 nm"
molecule=N#Cc1cccc(N2c3ccccc3C(c3ccccc3)(c3ccccc3)c3ccccc32)c1 readout="absorption maximum" recorded_result="284 nm"

Working through the 3 molecules below one at a time, give absorption maximum for each.
1. COc1ccc(C2=[N+]3C(=Nc4c(-c5cc(OC)c(OC)c(OC)c5)c(Br)c(-c5ccc(OC)cc5)n4[B-]3(F)F)C(c3cc(OC)c(OC)c(OC)c3)=C2Br)cc1
2. CCCCN1C(=O)c2cccc3c(OC)ccc(c23)C1=O
3. N#C/C(=C\c1ccncc1)c1nc(-c2ccccc2)cs1

Solution:
["689 nm", "362 nm", "372 nm"]

Working through the 5 molecules below one at a time, give absorption maximum for each.
1. CCC1=C(C)C2=C(c3cc(C(=O)Cl)cc(C(=O)Cl)c3)c3c(C)c(CC)c(C)n3[B-](F)(F)[N+]2=C1C
2. CCCCCCCCCCOc1ccc(C#Cc2ccc(C#Cc3ccc(OCCCCCCCCCC)c(OCCCCCCCCCC)c3)c3nc4c5ccccc5c5ccccc5c4nc23)cc1OCCCCCCCCCC
3. COc1ccc2c(=O)c3c([nH]c2c1)-c1ccccc1NC3(C)C
4. N#Cc1c(-n2c3ccccc3c3ccccc32)c(-n2c3ccccc3c3ccccc32)c(-n2c3ccccc3c3ccccc32)c(-n2c3ccccc3c3ccccc32)c1-n1c2ccccc2c2ccccc21
5. Cc1ccc2c(c1)C1(c3ccccc3-c3ccccc31)c1cc(C)ccc1N2c1ccc2c(c1)Oc1ccccc1P2(=O)c1ccccc1 (stereo not given)

Solution:
["531 nm", "461 nm", "397 nm", "402.99 nm", "311.25 nm"]

* * *

# experiment: solvent given as SMILES
# condition.context: in CS(C)=O
readout: absorption maximum
Answer with the figure and its unit, nothing else.

smiles_structure=O=c1c2cc(S(=O)(=O)Cl)ccc2[nH]c2ccc(S(=O)(=O)Cl)cc12 readout="absorption maximum" recorded_result="399 nm"
smiles_structure=CCCCCn1c2ccccc2c(=O)c2ccccc21 readout="absorption maximum" recorded_result="403 nm"

The record that follows has no absorption maximum shown yet.
Problem: # get_value(readout='absorption maximum', item= `Cc1cccn2c1cc1c3ccccc3nc(-c3cccs3)c12` )
Solution: 398 nm

* * *

# experiment: solvent given as SMILES
# condition.context: in Cc1ccccc1
Entries are sorted into classes by absorption maximum as follows: low (below 400 nm), middle (400 nm to below 500 nm), high (500 nm or more)

Problem: Exercise: read the entry `c1cc2ccc3ccc4cc3c2cc1c1ccc2c(c1)c1cc(ccc1[C@]13OCCO[C@]21OCCO3)c1ccc2c(c1)c1cc4ccc1[C@]13OCCO[C@]21OCCO3` and state which class it falls under.
Solution: low

Problem: Cool, now CN1c2ccccc2C(O)(c2ccccc2)c2cc([N+](=O)[O-])ccc21 (stereo unspecified)
Solution: low

Problem: Cool, now `Cc1cc(C)c(B(c2ccc(-c3nc4c5ccccc5c5ccccc5c4[nH]3)cc2)c2c(C)cc(C)cc2C)c(C)c1`
Solution: low

Problem: Cool, now `c1ccc(C(=C(c2ccccc2)c2ccc(-c3ccc(-c4nc5c(-c6ccc(-c7ccc(C(=C(c8ccccc8)c8ccccc8)c8ccccc8)cc7)cc6)sc(-c6ccc(-c7ccc(C(=C(c8ccccc8)c8ccccc8)c8ccccc8)cc7)cc6)c5nc4-c4ccc(-c5ccc(C(=C(c6ccccc6)c6ccccc6)c6ccccc6)cc5)cc4)cc3)cc2)c2ccccc2)cc1`
Solution: high

Problem: Cool, now `CC(C)(C)c1ccc2c(c1)c1cc(C(C)(C)C)ccc1n2-c1cc(N2c3ccccc3C(c3ccccc3)(c3ccccc3)c3ccccc32)cc(-n2c3ccc(C(C)(C)C)cc3c3cc(C(C)(C)C)ccc32)c1C#N`
Solution: low

Problem: Cool, now `COCCC1=Cc2nc1ccc1[nH]c(cc1CCOC)c1nc(c(NC(C)=O)cc3[nH]c2cc3CCOC)C(CCOC)=C1`
Solution: high

Problem: Cool, now `Cc1cc(C)c(C2=[N+]3C(=Cc4c(C)cc(C)n4[B-]3(F)F)c3ccccc32)[nH]1`
Solution: high

* * *

# experiment: solvent given as SMILES
# condition.context: in CS(C)=O
readout: absorption maximum (nm)
Give bare numbers, in nm.

Use the examples below as a reference point.
compound=Cc1ccc(-c2cc(/C=C/c3ccc(N(c4ccccc4)c4ccccc4)cc3)c(C#N)c(N3CCCCC3)c2)cc1 readout="absorption maximum" recorded_result=401
compound=CN(C)CCN(Cc1c2ccccc2cc2ccccc12)c1ccc([N+](=O)[O-])cc1[N+](=O)[O-] readout="absorption maximum" recorded_result=397
compound=CSc1sc(C(C)=O)c2nn[nH]c(=O)c12 readout="absorption maximum" recorded_result=400.5
compound="CN1c2ccccc2C(O)(c2ccccc2)c2cc([N+](=O)[O-])ccc21 (stereo not given)" readout="absorption maximum" recorded_result=410

The record that follows has no absorption maximum shown yet.
Problem: # get_value(readout='absorption maximum', item= `c1cnc2c(c1)c1nc(-c3ccc(-c4nc5c6cccnc6c6ncccc6c5[nH]4)cc3)[nH]c1c1cccnc12` )
Solution: 398
